- TESTED TARGET: Metabotropic glutamate receptor 8 (Rattus norvegicus) (UniProt P70579)
- Sequence (P70579 whole entry, looked up): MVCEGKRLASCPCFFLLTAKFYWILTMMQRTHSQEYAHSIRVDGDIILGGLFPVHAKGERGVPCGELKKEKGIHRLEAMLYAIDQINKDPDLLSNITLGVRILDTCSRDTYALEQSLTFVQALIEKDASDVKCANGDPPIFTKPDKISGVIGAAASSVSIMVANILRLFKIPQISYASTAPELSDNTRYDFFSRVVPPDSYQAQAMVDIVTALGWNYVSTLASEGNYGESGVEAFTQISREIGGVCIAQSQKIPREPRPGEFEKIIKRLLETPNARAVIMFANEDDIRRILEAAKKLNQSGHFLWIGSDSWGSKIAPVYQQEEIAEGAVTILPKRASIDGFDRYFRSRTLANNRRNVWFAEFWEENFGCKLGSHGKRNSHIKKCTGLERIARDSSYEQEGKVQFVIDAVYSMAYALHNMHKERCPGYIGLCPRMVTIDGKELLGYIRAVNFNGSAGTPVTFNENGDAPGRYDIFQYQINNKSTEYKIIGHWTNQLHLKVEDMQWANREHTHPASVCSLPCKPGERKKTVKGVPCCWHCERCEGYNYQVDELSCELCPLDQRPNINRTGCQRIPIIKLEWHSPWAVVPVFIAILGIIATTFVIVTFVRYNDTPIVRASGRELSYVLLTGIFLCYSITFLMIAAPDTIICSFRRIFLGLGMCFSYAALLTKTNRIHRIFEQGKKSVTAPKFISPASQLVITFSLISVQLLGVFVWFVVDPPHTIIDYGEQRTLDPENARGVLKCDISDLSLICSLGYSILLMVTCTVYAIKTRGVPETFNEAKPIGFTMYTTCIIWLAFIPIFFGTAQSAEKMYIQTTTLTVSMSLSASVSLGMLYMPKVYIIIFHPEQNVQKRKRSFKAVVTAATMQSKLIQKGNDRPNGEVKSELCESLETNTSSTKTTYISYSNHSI
- PROTOCOL TEXT: mGluR8 Gi/Go-coupled signaling modulation – cell-based, rat, thallium flux, HTS, primary screen (AID 488969)
- STUDY CONDITIONS: HEK293 rat mGluR8, GIRK (G protein-gated inwardly rectifying potassium channel) thallium flux, FluoZin2; at 10 µM; stronger effect = higher value; submaximal glutamate (EC20) added with thallium
The full ranking holds about 110,000 compounds; the median of “z-score” is about -0.1, and the highest 2% start at about 2. The sample holds the highest values, similar compounds and a random draw of the others, so the mix is not that of the screen.
Assign 1.0 whenever z-score does not fall below 0.07; assign 0.0 whenever it does.

stdin: Does the compound O=C(NN=C1c2ccccc2-c2ccccc21)c1ccccc1Br have recorded z-score that is 0.07 or more?
stdout: 1.0

stdin: One more compound: COCCNC(=O)c1cc(-c2ccc3c(c2)OCO3)on1
stdout: 1.0

stdin: One more compound: CCc1nc(SCC(=O)Nc2c(C)nn(C)c2C)c2cnn(-c3ccccc3)c2n1
stdout: 0.0

stdin: One more compound: O=C(CCCN1C(=O)c2ccccc2C1=O)OC1CSCC1NC(=O)c1ccccc1 (stereo unspecified)
stdout: 0.0

stdin: One more compound: COc1ccc(Cl)cc1NC(=S)NCCc1c[nH]c2ccccc12
stdout: 1.0
